target: canine TRPM8 (Canis lupus familiaris, UniProt Q1A7N1); construct: expressed in transfected cells; experiment: In vitro canine TRPM8 functional assay (Ca2+-sensitive dye, FLIPR/FDSS, icilin activation); assay type: cell-based; conditions: HEK293, read-out: % I (0.5 μM), 0.5 μM compound; HEK293 cells expressing canine TRPM8, icilin activation
Sequence (Q1A7N1 1-1104): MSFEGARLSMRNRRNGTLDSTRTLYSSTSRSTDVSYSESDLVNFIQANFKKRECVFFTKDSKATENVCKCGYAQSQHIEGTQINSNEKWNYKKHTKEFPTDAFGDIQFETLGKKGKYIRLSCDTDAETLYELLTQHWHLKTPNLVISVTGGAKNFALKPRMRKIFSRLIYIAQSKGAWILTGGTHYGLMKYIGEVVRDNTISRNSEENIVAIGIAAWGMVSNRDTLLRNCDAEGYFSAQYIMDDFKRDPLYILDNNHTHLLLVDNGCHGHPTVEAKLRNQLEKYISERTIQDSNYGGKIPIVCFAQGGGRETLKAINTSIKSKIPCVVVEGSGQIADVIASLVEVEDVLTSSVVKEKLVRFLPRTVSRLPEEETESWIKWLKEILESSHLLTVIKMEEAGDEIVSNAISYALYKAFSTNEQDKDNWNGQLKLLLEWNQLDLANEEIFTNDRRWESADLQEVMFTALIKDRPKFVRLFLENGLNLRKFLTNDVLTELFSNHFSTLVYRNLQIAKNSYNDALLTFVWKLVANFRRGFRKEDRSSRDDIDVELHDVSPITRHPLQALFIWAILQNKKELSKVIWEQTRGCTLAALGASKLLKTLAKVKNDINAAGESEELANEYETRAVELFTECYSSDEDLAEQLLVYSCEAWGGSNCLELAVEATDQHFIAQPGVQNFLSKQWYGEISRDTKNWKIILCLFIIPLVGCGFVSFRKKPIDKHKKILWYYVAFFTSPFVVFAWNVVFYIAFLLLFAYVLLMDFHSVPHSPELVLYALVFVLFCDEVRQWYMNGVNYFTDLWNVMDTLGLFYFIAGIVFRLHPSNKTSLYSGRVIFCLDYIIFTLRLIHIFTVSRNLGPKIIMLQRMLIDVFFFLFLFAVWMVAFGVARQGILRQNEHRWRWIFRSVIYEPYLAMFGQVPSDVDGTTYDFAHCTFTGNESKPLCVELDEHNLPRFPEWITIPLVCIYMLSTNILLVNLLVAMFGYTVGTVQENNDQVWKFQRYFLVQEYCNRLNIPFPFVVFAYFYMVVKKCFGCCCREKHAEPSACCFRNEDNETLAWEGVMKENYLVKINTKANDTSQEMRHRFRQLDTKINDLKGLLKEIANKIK
readout.kind: inhibition at 0.5 µM (%)
Form entry: value (%) — number only.

Some solved entries appear below for comparison.
Enquiry: For the molecule CCOP(=O)(OCC)C(Cc1ccc(F)c(O)c1)c1sc2ccccc2c1Br (stereo not shown) [Cpd 225] , report inhibition at 0.5 µM.
Return: 103

Enquiry: Identify inhibition at 0.5 µM associated with the molecule CCOP(=O)(OCC)C(Cc1ccc(F)cc1)c1sc2ccccc2c1Br (stereo not shown) [Cpd 238]
Return: 104

Enquiry: Please give the documented inhibition at 0.5 µM of CCOP(=O)(OCC)C(Cc1ccc(F)c(OC)c1)c1sc2ccccc2c1Br (stereo not shown) [Cpd 156]
Return: 103

More entries:
Enquiry: Identify the reported inhibition at 0.5 µM for the following entry. CCOP(=O)(OCC)C(Cc1cccc(N)c1)c1sc2ccccc2c1Br (stereo not shown) [Cpd 318]
Return: 100
